target: full length active recombinant SYK enzyme (Homo sapiens, UniProt P43405); construct: full length active recombinant SYK enzyme (Millipore, Calif.); purchased Millipore; experiment: Inhibition of Syk tyrosine phosphorylation activity (LANCE TR-FRET); type: biochemical; conditions: Table 3; 1 nM SYK, 100 μM ATP; read-out: Syk IC50 code
pIC50: −log10 of the molar value.
readout_type: pIC50

molecule	experimental_target	readout_type	reading
CC(=O)N(C)c1ccc(Nc2nc(NC3CC3)c3c(C#N)c[nH]c3n2)cc1 [Example 105]	full length active recombinant SYK enzyme (Homo sapiens, UniProt P43405)	pIC50	7.00 to 8.00
N[C@H]1CC[C@@H](Nc2nc(Nc3ccc4c(c3)CCC(=O)N4)ncc2C2CC2)CC1 [Example 144]	full length active recombinant SYK enzyme (Homo sapiens, UniProt P43405)	pIC50	7.00 to 8.00
N[C@H]1CC[C@@H](Nc2nc(Nc3ccc4c(c3)CCC(=O)N4)ncc2-c2ccncc2)CC1 [Example 143]	full length active recombinant SYK enzyme (Homo sapiens, UniProt P43405)	pIC50	< 6.00
OCCNc1nc(Nc2ccc3cn[nH]c3c2)nc2[nH]ccc12 [Example 91]	full length active recombinant SYK enzyme (Homo sapiens, UniProt P43405)	pIC50	7.00 to 8.00
NC(=O)NCC1CCN(c2nc(Nc3ccc4c(c3)CCC(=O)N4)ncc2F)CC1 [Example 37]	full length active recombinant SYK enzyme (Homo sapiens, UniProt P43405)	pIC50	6.00 to 7.00
CCCCOC(C)c1c[nH]c2nc(Nc3ccc4cn[nH]c4c3)nc(NC3CC3)c12 (stereo not drawn) [Example 41]	full length active recombinant SYK enzyme (Homo sapiens, UniProt P43405)	pIC50	6.00 to 7.00
c1cc2c(NC3CCNCC3)nc(Nc3ccc4cn[nH]c4c3)nc2[nH]1 [Example 58]	full length active recombinant SYK enzyme (Homo sapiens, UniProt P43405)	pIC50	6.00 to 7.00
COCCNc1nc(Nc2ccc(N3CCN(C(C)=O)CC3)cc2)nc2[nH]ccc12 [Example 90]	full length active recombinant SYK enzyme (Homo sapiens, UniProt P43405)	pIC50	6.00 to 7.00
CN(C(=O)C1CC1)c1ccc(Nc2nc(NC3CCC3)c3cc[nH]c3n2)cc1 [Example 80]	full length active recombinant SYK enzyme (Homo sapiens, UniProt P43405)	pIC50	6.00 to 7.00
CN1C(=O)CCc2cc(Nc3nc(NCc4ccccc4)c4c(C#N)c[nH]c4n3)ccc21 [Example 115]	full length active recombinant SYK enzyme (Homo sapiens, UniProt P43405)	pIC50	6.00 to 7.00
CC(=O)N1CCN(c2ccc(Nc3nc(NC4CC4)c4c(C#N)c[nH]c4n3)cc2)CC1 [Example 107]	full length active recombinant SYK enzyme (Homo sapiens, UniProt P43405)	pIC50	7.00 to 8.00
CC(=O)N1CCN(c2ccc(Nc3nc(N4CCCC(C(N)=O)C4)c4nc[nH]c4n3)cc2)CC1 (stereo not drawn) [Example 118]	full length active recombinant SYK enzyme (Homo sapiens, UniProt P43405)	pIC50	6.00 to 7.00
CN(C(=O)CO)c1ccc(Nc2nc(NC3CCC3)c3cc[nH]c3n2)cc1 [Example 74]	full length active recombinant SYK enzyme (Homo sapiens, UniProt P43405)	pIC50	7.00 to 8.00
N#Cc1c[nH]c2nc(Nc3ccc4cn[nH]c4c3)nc(NC3CC3)c12 [Example 40]	full length active recombinant SYK enzyme (Homo sapiens, UniProt P43405)	pIC50	7.00 to 8.00
CCCCOC(=O)CC1CCN(c2nc(Nc3ccc4c(c3)CCC(=O)N4)nc3[nH]ccc23)CC1 [Example 119]	full length active recombinant SYK enzyme (Homo sapiens, UniProt P43405)	pIC50	< 6.00
N#Cc1c[nH]c2nc(Nc3ccc4c(c3)CCC(=O)N4)nc(NC3CC3)c12 [Example 103]	full length active recombinant SYK enzyme (Homo sapiens, UniProt P43405)	pIC50	8.00 to 9.00
CC(=O)N1CCN(c2ccc(Nc3ncc(F)c(N[C@H]4CC[C@@H](N)CC4)n3)cc2)CC1 [Example 142]	full length active recombinant SYK enzyme (Homo sapiens, UniProt P43405)	pIC50	6.00 to 7.00
NCCOCCNc1nc(Nc2ccc(N3CCC[C@H]3C(N)=O)cc2)nc2[nH]ccc12 [Example 94]	full length active recombinant SYK enzyme (Homo sapiens, UniProt P43405)	pIC50	6.00 to 7.00
CC(=O)N1CCN(c2ccc(Nc3nc(NCC4CCNCC4)c4c(C#N)c[nH]c4n3)cc2)CC1 [Example 45]	full length active recombinant SYK enzyme (Homo sapiens, UniProt P43405)	pIC50	6.00 to 7.00
NC(=O)CNc1nc(Nc2ccc3cn[nH]c3c2)nc2[nH]ccc12 [Example 83]	full length active recombinant SYK enzyme (Homo sapiens, UniProt P43405)	pIC50	6.00 to 7.00
CN(C(=O)CCO)c1ccc(Nc2nc(NC3CC3)c3cc[nH]c3n2)cc1 [Example 87]	full length active recombinant SYK enzyme (Homo sapiens, UniProt P43405)	pIC50	7.00 to 8.00
CC(=O)N1CCN(c2ccc(Nc3ncc(F)c(N4CCC(CO)CC4)n3)cc2)CC1 [Example 38]	full length active recombinant SYK enzyme (Homo sapiens, UniProt P43405)	pIC50	< 6.00
NC(=O)c1cnc(-[n+]2ccc(-c3ccc(N)cc3)cc2)nc1NC1CC1 [Example 5]	full length active recombinant SYK enzyme (Homo sapiens, UniProt P43405)	pIC50	< 6.00
CNc1nc(Nc2ccc3cn[nH]c3c2)nc2[nH]cc(-c3ccncc3)c12 [Example 1]	full length active recombinant SYK enzyme (Homo sapiens, UniProt P43405)	pIC50	7.00 to 8.00
CC(=O)N(C)c1ccc(Nc2nc(NCCCCCN)c3c(Br)c[nH]c3n2)cc1 [Example 67]	full length active recombinant SYK enzyme (Homo sapiens, UniProt P43405)	pIC50	< 6.00
CC(=O)N1CCN(c2ccc(Nc3nc(NC4CC4)c4c(-c5ccncc5)c[nH]c4n3)cc2)CC1 [Example 4]	full length active recombinant SYK enzyme (Homo sapiens, UniProt P43405)	pIC50	7.00 to 8.00
CC(C)(CN)CNc1nc(Nc2ccc3cn[nH]c3c2)nc2[nH]ccc12 [Example 60]	full length active recombinant SYK enzyme (Homo sapiens, UniProt P43405)	pIC50	< 6.00
CC(=O)N1CCN(c2ccc(Nc3ncc(F)c(N4CCC(NC(N)=O)CC4)n3)cc2)CC1 [Example 129]	full length active recombinant SYK enzyme (Homo sapiens, UniProt P43405)	pIC50	< 6.00
NS(=O)(=O)c1cccc(Nc2nc(Nc3ccc(N4CCNCC4)cc3)nc3[nH]ccc23)c1 [Example 96B]	full length active recombinant SYK enzyme (Homo sapiens, UniProt P43405)	pIC50	7.00 to 8.00
CN1C(=O)CCc2cc(Nc3nc(N)c4c(-c5ccc(F)cc5)c[nH]c4n3)ccc21 [Example 113]	full length active recombinant SYK enzyme (Homo sapiens, UniProt P43405)	pIC50	< 6.00
COC(=O)C(N)C1CCN(c2nc(Nc3ccc4c(c3)CCC(=O)N4)ncc2F)CC1 (stereo not drawn) [Example 135]	full length active recombinant SYK enzyme (Homo sapiens, UniProt P43405)	pIC50	< 6.00
CC(=O)N1CCN(c2ccc(Nc3ncc(F)c(N4CCN(C(N)=O)CC4)n3)cc2)CC1 [Example 125]	full length active recombinant SYK enzyme (Homo sapiens, UniProt P43405)	pIC50	< 6.00
CC(=O)N1CCN(c2ccc(Nc3nc(Nc4cccc(C(N)=O)c4)c4cc[nH]c4n3)cc2)CC1 [Example 95A]	full length active recombinant SYK enzyme (Homo sapiens, UniProt P43405)	pIC50	6.00 to 7.00
